- assay-remarks: Tmax in Hanover-Wistar rat at 5 mg/kg, po
- Format: ADME, organism-based
- Set-up: dose 5 mg/kg, route oral
- run-conditions: in vivo
readout: Tmax (min)

[
  {
    "entry-smiles": "Cn1c(=O)c(Oc2ccc(F)cc2F)cc2cnc(NC(CCO)CCO)nc21",
    "unit-info": "min",
    "recorded-result": 30
  }
]

---

- tested-system: Mitogen-activated protein kinase 14 (Homo sapiens, UniProt Q16539)
- Sequence (Q16539 whole entry): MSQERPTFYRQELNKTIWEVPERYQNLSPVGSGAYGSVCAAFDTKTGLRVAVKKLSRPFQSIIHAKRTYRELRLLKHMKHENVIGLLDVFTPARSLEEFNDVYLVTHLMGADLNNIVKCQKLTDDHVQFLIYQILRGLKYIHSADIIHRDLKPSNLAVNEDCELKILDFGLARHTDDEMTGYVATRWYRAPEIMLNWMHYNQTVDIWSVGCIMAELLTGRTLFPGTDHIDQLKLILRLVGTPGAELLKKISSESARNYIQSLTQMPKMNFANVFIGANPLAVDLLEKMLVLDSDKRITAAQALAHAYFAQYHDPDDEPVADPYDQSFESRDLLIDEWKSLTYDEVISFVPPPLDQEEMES
- assay-remarks: Inhibition of p38alpha
readout: Kd (nM)

[
  {
    "entry-smiles": "O=C1Nc2nc(N[C@H]3CC[C@H](O)CC3)ncc2CN1c1ccccc1Cl",
    "tested-system": "Mitogen-activated protein kinase 14 (Homo sapiens, UniProt Q16539)",
    "readout": "Kd",
    "recorded-result": 32
  },
  {
    "entry-smiles": "CCN(CC)CCOc1ccc(Nc2ncc3c(n2)N(C)C(=O)N(c2c(Cl)cccc2Cl)C3)cc1",
    "tested-system": "Mitogen-activated protein kinase 14 (Homo sapiens, UniProt Q16539)",
    "readout": "Kd",
    "recorded-result": 10
  }
]

---

- assay-remarks: Oral bioavailability in Hanover-Wistar rat at 5 mg/kg
- Type: ADME, organism-based
- run-conditions: in vivo

[
  {
    "compound": "Cn1c(=O)c(Oc2ccc(F)cc2F)cc2cnc(NC(CCO)CCO)nc21 [PAMAPIMOD]",
    "unit-info": "%",
    "bioavailability": 80.1
  }
]

---

- tested-system: Mitogen-activated protein kinase 14 (Homo sapiens)
- assay-remarks: Inhibition of human recombinant p38alpha assessed as incorporation of 33P from gamma-[33P]ATP into myelin basic protein after 30 mins by scintillation counting
pIC50: −log10 of the molar value.
I would appreciate it if you labelled entries Met when pIC50 is 8 or higher, otherwise Not met.

[
  {
    "entry-smiles": "O=c1c(Oc2ccc(F)cc2F)cc2cnc(NC3CCOCC3)nc2n1C1CCS(=O)(=O)CC1",
    "label": "Met"
  },
  {
    "entry-smiles": "Cn1c(=O)c(Oc2ccc(F)cc2F)cc2cnc(N[C@H]3CC[C@H](O)CC3)nc21",
    "label": "Met"
  },
  {
    "entry-smiles": "Cn1c(=O)c(Oc2ccc(F)cc2F)cc2cnc(N[C@H]3CCOC3)nc21",
    "label": "Not met"
  },
  {
    "entry-smiles": "CS(=O)(=O)CCn1c(=O)c(Oc2ccc(F)cc2F)cc2cnc(NC3CCOCC3)nc21",
    "label": "Not met"
  },
  {
    "entry-smiles": "Cn1c(=O)c(Oc2ccc(F)cc2F)cc2cnc(NCC(C)(C)O)nc21",
    "label": "Not met"
  },
  {
    "entry-smiles": "Cn1c(=O)c(Cc2ccc(F)cc2F)cc2cnc(NC3CCOCC3)nc21",
    "label": "Not met"
  },
  {
    "entry-smiles": "CC(C)Nc1ncc2cc(Oc3ccc(F)cc3F)c(=O)n(C)c2n1",
    "label": "Met"
  },
  {
    "entry-smiles": "Cn1c(=O)c(Sc2ccccc2F)cc2cnc(NC3CCOCC3)nc21",
    "label": "Not met"
  },
  {
    "entry-smiles": "CNc1ncc2cc(Oc3ccc(F)cc3F)c(=O)n(C)c2n1",
    "label": "Not met"
  },
  {
    "entry-smiles": "Cn1c(=O)c(Oc2ccc(F)cc2F)cc2cnc(NC(CO)CO)nc21",
    "label": "Not met"
  },
  {
    "entry-smiles": "CS(=O)(=O)N1CCC(n2c(=O)c(Oc3ccc(F)cc3F)cc3cnc(NC4CCOCC4)nc32)CC1",
    "label": "Met"
  },
  {
    "entry-smiles": "Cn1c(=O)c(Cc2ccccc2F)cc2cnc(NC3CCOCC3)nc21",
    "label": "Not met"
  },
  {
    "entry-smiles": "N#CCn1c(=O)c(Oc2ccc(F)cc2F)cc2cnc(NC3CCOCC3)nc21",
    "label": "Met"
  },
  {
    "entry-smiles": "CC(=O)N1CCC(Nc2ncc3cc(Oc4ccc(F)cc4F)c(=O)n(C)c3n2)CC1",
    "label": "Met"
  },
  {
    "entry-smiles": "O=c1[nH]c2nc(NC3CCOCC3)ncc2cc1Oc1ccc(F)cc1F",
    "label": "Not met"
  }
]

---

- assay-remarks: Volume of distribution at steady state in Hanover-Wistar rat at 5 mg/kg, iv
- Format: ADME, organism-based
- Set-up: dose 5 mg/kg, route intravenous
- run-conditions: in vivo, read-out: Vdss
readout: Vd (L/kg)

[
  {
    "entry-smiles": "Cn1c(=O)c(Oc2ccc(F)cc2F)cc2cnc(NC(CCO)CCO)nc21",
    "recorded-result": 3.56
  }
]

---

- assay-remarks: Tmax in Beagle dog at 5 mg/kg, po
- Assay type: ADME, organism-based, Canis lupus familiaris
- Design: dose 5 mg/kg, route oral
- run-conditions: in vivo
readout: Tmax (min)

[
  {
    "compound": "Cn1c(=O)c(Oc2ccc(F)cc2F)cc2cnc(NC(CCO)CCO)nc21 [PAMAPIMOD]",
    "readout": "Tmax",
    "unit-info": "min",
    "recorded-result": 40.2
  }
]

---

- assay-remarks: Clearance in cynomolgus monkey at 5 mg/kg, iv
- Assay type: ADME, organism-based, Macaca fascicularis
- Set-up: dose 5 mg/kg, route intravenous
- run-conditions: in vivo
readout: clearance (mL/min/kg)

[
  {
    "entry-smiles": "Cn1c(=O)c(Oc2ccc(F)cc2F)cc2cnc(NC(CCO)CCO)nc21",
    "readout": "clearance",
    "unit-info": "mL/min/kg",
    "recorded-result": 10.8
  }
]

---

Below, each of the molecules is paired with its reported pEC50 value.
- Tested on: Rattus norvegicus
- assay-remarks: Inhibition of TNF-alpha-induced IL-6 production in po dosed rat plasma administered 30 mins before TNFalpha challenge measured after 2 hrs by ELISA
- Format: functional, organism-based
pEC50: −log10 of the molar value.
readout: pEC50

[
  {
    "entry-smiles": "Cn1c(=O)c(Oc2ccc(F)cc2F)cc2cnc(NC3CCOCC3)nc21",
    "readout": "pEC50",
    "recorded-result": 7.70
  },
  {
    "entry-smiles": "Cn1c(=O)c(Oc2ccc(F)cc2F)cc2cnc(NC(CCO)CCO)nc21",
    "readout": "pEC50",
    "recorded-result": 6.57
  }
]

---

Consider the following pKd values measured on Atypical kinase COQ8A, mitochondrial (Homo sapiens).
Sequence (Q8NI60 whole entry): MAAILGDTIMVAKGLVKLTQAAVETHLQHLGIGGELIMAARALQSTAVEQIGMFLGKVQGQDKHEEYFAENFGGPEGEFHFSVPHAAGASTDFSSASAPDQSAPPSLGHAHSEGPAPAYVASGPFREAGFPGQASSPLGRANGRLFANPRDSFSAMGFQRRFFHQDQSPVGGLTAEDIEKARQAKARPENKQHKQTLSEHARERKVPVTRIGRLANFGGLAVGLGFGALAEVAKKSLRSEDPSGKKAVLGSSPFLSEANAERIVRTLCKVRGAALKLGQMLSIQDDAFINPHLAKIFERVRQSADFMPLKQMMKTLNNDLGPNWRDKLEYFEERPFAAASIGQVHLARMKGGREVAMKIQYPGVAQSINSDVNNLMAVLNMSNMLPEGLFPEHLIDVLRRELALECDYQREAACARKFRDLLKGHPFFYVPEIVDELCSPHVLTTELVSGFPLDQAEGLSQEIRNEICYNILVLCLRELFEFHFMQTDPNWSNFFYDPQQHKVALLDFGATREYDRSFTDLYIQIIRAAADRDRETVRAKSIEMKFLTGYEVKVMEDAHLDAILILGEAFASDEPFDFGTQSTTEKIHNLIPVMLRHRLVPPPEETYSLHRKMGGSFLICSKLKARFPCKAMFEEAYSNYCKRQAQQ
pKd: −log10 of the molar value.

[
  {
    "molecule": "Cn1c(=O)c(Oc2ccc(F)cc2F)cc2cnc(NC3CCOCC3)nc21 [R-1487]",
    "qualifier-sign": "=",
    "pKd": 6.49
  },
  {
    "molecule": "Cn1c(=O)c(Oc2ccc(F)cc2F)cc2cnc(NC(CCO)CCO)nc21 [PAMAPIMOD]",
    "qualifier-sign": "<",
    "pKd": 6.00
  }
]

---

- assay-remarks: Oral bioavailability in Beagle dog at 10 mg/kg
- Assay type: ADME, organism-based, Canis lupus familiaris
- run-conditions: in vivo

[
  {
    "compound": "Cl.Cn1c(=O)c(Oc2ccc(F)cc2F)cc2cnc(NC3CCOCC3)nc21 [R-1487 HYDROCHLORIDE]",
    "bioavailability": "10.3%"
  }
]

---

- tested-system: Tyrosine-protein kinase Lck (Homo sapiens, UniProt P06239)
- Sequence (P06239 whole entry): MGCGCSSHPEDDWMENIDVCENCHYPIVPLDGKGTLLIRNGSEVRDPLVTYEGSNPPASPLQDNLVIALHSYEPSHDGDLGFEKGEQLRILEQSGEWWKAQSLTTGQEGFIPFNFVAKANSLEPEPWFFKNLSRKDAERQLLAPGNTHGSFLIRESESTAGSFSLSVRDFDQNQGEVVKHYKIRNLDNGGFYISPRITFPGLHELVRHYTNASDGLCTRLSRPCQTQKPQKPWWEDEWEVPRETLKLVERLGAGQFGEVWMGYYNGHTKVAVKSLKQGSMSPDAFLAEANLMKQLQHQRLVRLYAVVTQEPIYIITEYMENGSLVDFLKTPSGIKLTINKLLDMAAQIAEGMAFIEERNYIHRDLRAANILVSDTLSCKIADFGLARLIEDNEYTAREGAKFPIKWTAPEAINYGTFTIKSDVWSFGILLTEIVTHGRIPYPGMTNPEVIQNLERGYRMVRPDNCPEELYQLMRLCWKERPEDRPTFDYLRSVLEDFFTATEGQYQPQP
readout: Kd (nM)

[
  {
    "entry-smiles": "CCN(CC)CCOc1ccc(Nc2ncc3c(n2)N(C)C(=O)N(c2c(Cl)cccc2Cl)C3)cc1",
    "recorded-result": 0.2
  }
]

---

Below, each of the molecules is paired with its reported IC50 value.
- Tested on: Blood
- assay-remarks: Inhibition of TNFalpha-induced IL1-beta production in human whole blood after 2 to 5 hrs by ELISA
- Format: functional, tissue-based

[
  {
    "entry-smiles": "Cn1c(=O)c(Oc2ccc(F)cc2F)cc2cnc(NCCS(C)(=O)=O)nc21",
    "unit-info": "nM",
    "IC50": 1490
  },
  {
    "entry-smiles": "CCn1c(=O)c(Oc2ccc(F)cc2F)cc2cnc(NC3CCOCC3)nc21",
    "unit-info": "nM",
    "IC50": 15
  },
  {
    "entry-smiles": "O=c1c(Oc2ccc(F)cc2F)cc2cnc(NC3CCOCC3)nc2n1C1CCS(=O)(=O)CC1",
    "unit-info": "nM",
    "IC50": 11
  },
  {
    "entry-smiles": "Cn1c(=O)c(Oc2ccc(F)cc2)cc2cnc(NC3CCOCC3)nc21",
    "unit-info": "nM",
    "IC50": 547
  }
]
